FYI, the data here is from ChEMBL document CHEMBL2434954.

System: Mus musculus
Experiment: Analgesic activity in sc dosed CD1 mouse assessed as increase in pain threshold by tail flick method
Format: functional
For each record, write down the corresponding ED50.

Need ED50 of COc1ccc2c3c1O[C@H]1[C@H](NC(=O)/C=C/c4cccc([N+](=O)[O-])c4)C=C[C@H]4[C@@H](C2)N(C)CC[C@@]341 , thanks.
> 10 mg/kg

Which ED50 is reported for this compound? CN1CC[C@]23c4c5ccc(O)c4O[C@H]2[C@H](NC(=O)/C=C/c2ccc(Cl)cc2)C=C[C@H]3[C@H]1C5
> 10 mg/kg

What ED50 value was documented for this compound, CN1CC[C@]23c4c5ccc(O)c4O[C@H]2[C@H](NC(=O)/C=C/c2ccccc2)C=C[C@H]3[C@H]1C5 ?
3.13 mg/kg

---

Target: Delta-type opioid receptor (Mus musculus, UniProt P32300)
Sequence (P32300 whole entry): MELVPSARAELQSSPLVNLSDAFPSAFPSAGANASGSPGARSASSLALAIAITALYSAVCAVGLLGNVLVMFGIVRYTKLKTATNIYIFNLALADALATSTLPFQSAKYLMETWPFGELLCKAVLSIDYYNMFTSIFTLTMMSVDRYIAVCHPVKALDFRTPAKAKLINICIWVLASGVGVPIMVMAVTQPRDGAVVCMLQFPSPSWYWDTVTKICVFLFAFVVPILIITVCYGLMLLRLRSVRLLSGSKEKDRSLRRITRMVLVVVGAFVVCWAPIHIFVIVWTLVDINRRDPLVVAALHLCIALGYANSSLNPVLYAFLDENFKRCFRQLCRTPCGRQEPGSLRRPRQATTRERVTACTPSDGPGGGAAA
Assay: Displacement of [125I]-BNtxA from mouse cloned delta opioid receptor expressed in CHO cells after 90 mins
Field: pKi. Provide a value for each of the molecules that follow.
Would you please state pKi, meaning minus log10 of the concentration in mol/L, as a bare number?

Kindly state the measured pKi obtained for CN1CC[C@]23c4c5ccc(O)c4O[C@H]2[C@H](NC(=O)/C=C/c2ccccc2)C=C[C@H]3[C@H]1C5 with Delta-type opioid receptor (Mus musculus, UniProt P32300).
7.99

Notebook entry, Delta-type opioid receptor (Mus musculus, UniProt P32300) assay: pKi of CN1CC[C@]23c4c5ccc(O)c4O[C@H]2[C@H](NC(=O)/C=C/c2ccc(C(F)(F)F)cc2)C=C[C@H]3[C@H]1C5 = ?
7.84

Hello, I am looking for reported pKi with Delta-type opioid receptor (Mus musculus, UniProt P32300) for CN1CC[C@]23c4c5ccc(O)c4O[C@H]2[C@H](NC(=O)/C=C/c2cccc([N+](=O)[O-])c2)C=C[C@H]3[C@H]1C5 . Could you help?
8.29

What value of pKi on Delta-type opioid receptor (Mus musculus, UniProt P32300) does COc1ccc(/C=C/C(=O)N[C@@H]2C=C[C@H]3[C@H]4Cc5ccc(O)c6c5[C@@]3(CCN4C)[C@H]2O6)cc1 have?
7.82

Look up pKi with Delta-type opioid receptor (Mus musculus, UniProt P32300) for this molecule: CN1CC[C@]23c4c5ccc(O)c4O[C@H]2[C@H](NC(=O)/C=C/c2ccc(Cl)cc2)C=C[C@H]3[C@H]1C5
8.03

---

Consider the following compounds; for each one, report its Ki.
Report as a plain number; the unit nM is understood.

Form field: Ki recorded for CN1CC[C@]23c4c5ccc(O)c4O[C@H]2[C@H](NC(=O)/C=C/c2ccccc2)C=C[C@H]3[C@H]1C5 with Kappa-type opioid receptor (Mus musculus, UniProt P33534) (enter value)
2.9

For the record CN1CC[C@]23c4c5ccc(O)c4O[C@H]2[C@H](NC(=O)/C=C/c2ccc(C(F)(F)F)cc2)C=C[C@H]3[C@H]1C5 , what value of Ki is listed for Kappa-type opioid receptor (Mus musculus, UniProt P33534)?
10.5

---

Molecular target: Kappa-type opioid receptor (Mus musculus)
Sequence (P33534 whole entry): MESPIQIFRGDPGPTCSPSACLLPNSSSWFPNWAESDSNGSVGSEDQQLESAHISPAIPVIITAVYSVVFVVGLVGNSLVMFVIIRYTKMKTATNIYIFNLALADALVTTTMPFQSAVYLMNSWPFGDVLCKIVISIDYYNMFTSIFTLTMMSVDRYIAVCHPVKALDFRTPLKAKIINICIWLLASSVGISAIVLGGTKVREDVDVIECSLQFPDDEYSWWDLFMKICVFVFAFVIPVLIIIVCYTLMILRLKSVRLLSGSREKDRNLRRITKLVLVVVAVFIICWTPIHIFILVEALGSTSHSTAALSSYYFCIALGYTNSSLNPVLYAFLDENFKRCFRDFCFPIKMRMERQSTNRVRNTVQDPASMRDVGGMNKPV
Experiment: Agonist activity at mouse cloned kappa opioid receptor expressed in CHO cells after 60 mins by [35S]GTPgammaS binding assay
TEST_READOUT: pEC50
When answering, recall that pEC50 equals minus log10 of the concentration in mol/L, and write that number alone.

Name the reported pEC50 value associated with the molecule CN1CC[C@]23c4c5ccc(O)c4O[C@H]2[C@H](NC(=O)/C=C/c2ccccc2)C=C[C@H]3[C@H]1C5
7.44

---

Biological target: Mu-type opioid receptor (Mus musculus, UniProt P42866)
Sequence (P42866 whole entry): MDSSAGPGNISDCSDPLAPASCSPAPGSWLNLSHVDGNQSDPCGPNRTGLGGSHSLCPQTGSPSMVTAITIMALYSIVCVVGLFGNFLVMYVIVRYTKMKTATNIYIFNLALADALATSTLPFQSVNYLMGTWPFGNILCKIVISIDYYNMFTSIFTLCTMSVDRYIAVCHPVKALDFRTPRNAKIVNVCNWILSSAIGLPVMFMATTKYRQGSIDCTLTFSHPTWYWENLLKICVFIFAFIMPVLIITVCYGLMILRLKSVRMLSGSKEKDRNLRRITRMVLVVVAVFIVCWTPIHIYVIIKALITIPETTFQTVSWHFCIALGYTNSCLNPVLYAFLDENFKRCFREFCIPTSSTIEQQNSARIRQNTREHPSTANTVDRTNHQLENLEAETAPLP
Ki less than 0.2 nM is fulfilled; Ki greater than or equal to 0.2 nM is not fulfilled.

Is it true that Ki reported for COc1ccc2c3c1O[C@H]1[C@H](NC(=O)/C=C/c4ccccc4)C=C[C@H]4[C@@H](C2)N(C)CC[C@@]341 is less than 0.2 nM?
not fulfilled

Hi there! Is Ki for COc1ccc(/C=C/C(=O)N[C@@H]2C=C[C@H]3[C@H]4Cc5ccc(O)c6c5[C@@]3(CCN4C)[C@H]2O6)cc1 below 0.2 nM, do you know?
not fulfilled

# strict comparison: is reported Ki < 0.2 nM? input = COc1ccc2c3c1O[C@H]1[C@H](NC(=O)/C=C/c4cccc([N+](=O)[O-])c4)C=C[C@H]4[C@@H](C2)N(C)CC[C@@]341
not fulfilled

Given the entry COc1ccc2c3c1O[C@H]1[C@H](NC(=O)/C=C/c4ccc(C(F)(F)F)cc4)C=C[C@H]4[C@@H](C2)N(C)CC[C@@]341 , would its reported Ki be below 0.2 nM?
not fulfilled

Hi there! Is Ki for CN1CC[C@]23c4c5ccc(O)c4O[C@H]2[C@H](NC(=O)/C=C/c2ccc(Cl)cc2)C=C[C@H]3[C@H]1C5 below 0.2 nM, do you know?
fulfilled

Hello, I'm reviewing records and need to know if Ki of COc1ccc2c3c1O[C@H]1[C@H](NC(=O)/C=C/c4ccc(Cl)cc4)C=C[C@H]4[C@@H](C2)N(C)CC[C@@]341 is below 0.2 nM. Could you check?
not fulfilled

Record CN1CC[C@]23c4c5ccc(O)c4O[C@H]2[C@H](NC(=O)/C=C/c2ccccc2)C=C[C@H]3[C@H]1C5 : is its Ki strictly below 0.2 nM?
fulfilled

I wonder whether CN1CC[C@]23c4c5ccc(O)c4O[C@H]2[C@H](NC(=O)/C=C/c2cccc([N+](=O)[O-])c2)C=C[C@H]3[C@H]1C5 has Ki below 0.2 nM. Can you tell?
fulfilled

Find out if reported Ki for CN1CC[C@]23c4c5ccc(O)c4O[C@H]2[C@H](NC(=O)/C=C/c2ccc(C(F)(F)F)cc2)C=C[C@H]3[C@H]1C5 is less than 0.2 nM
fulfilled

Is it true that Ki reported for COc1ccc(/C=C/C(=O)N[C@@H]2C=C[C@H]3[C@H]4Cc5ccc(OC)c6c5[C@@]3(CCN4C)[C@H]2O6)cc1 is less than 0.2 nM?
not fulfilled

---

Kindly state pKi for each of the entries shown.
pKi: −log10 of the molar value.

Request body: readout pKi, system UniProt:P33534, query CN1CC[C@]23c4c5ccc(O)c4O[C@H]2[C@H](NC(=O)/C=C/c2cccc([N+](=O)[O-])c2)C=C[C@H]3[C@H]1C5 . Return the value.
9.09

Provide the documented pKi with UniProt:P33534 as the system for COc1ccc2c3c1O[C@H]1[C@H](NC(=O)/C=C/c4ccc(C(F)(F)F)cc4)C=C[C@H]4[C@@H](C2)N(C)CC[C@@]341
< 7.00

Quick check: pKi on UniProt:P33534, item COc1ccc(/C=C/C(=O)N[C@@H]2C=C[C@H]3[C@H]4Cc5ccc(OC)c6c5[C@@]3(CCN4C)[C@H]2O6)cc1 ?
< 7.00

---

For each of the molecules below, state its Ki.
Express your answer in nM, writing the number without its unit.

Which measured Ki belongs to COc1ccc(/C=C/C(=O)N[C@@H]2C=C[C@H]3[C@H]4Cc5ccc(O)c6c5[C@@]3(CCN4C)[C@H]2O6)cc1 , tested on Kappa-type opioid receptor (Mus musculus)?
5.43

Record lookup: for Kappa-type opioid receptor (Mus musculus), what Ki belongs to CN1CC[C@]23c4c5ccc(O)c4O[C@H]2[C@H](NC(=O)/C=C/c2ccc(Cl)cc2)C=C[C@H]3[C@H]1C5 ?
1.97

---

Target: Mu-type opioid receptor (Mus musculus)
Assay: Agonist activity at mouse cloned mu opioid receptor expressed in CHO cells after 60 mins by [35S]GTPgammaS binding assay
TEST_READOUT: pEC50
In plain terms, pEC50 is the concentration in mol/L turned into minus its base-10 logarithm.

Field: pEC50 (Mu-type opioid receptor (Mus musculus)). Entry: CN1CC[C@]23c4c5ccc(O)c4O[C@H]2[C@H](NC(=O)/C=C/c2ccccc2)C=C[C@H]3[C@H]1C5
8.86
